- testTarget: 肺炎支原体天然抗原(购自Microbix) (Mycoplasma pneumoniae)
- protocolSummary: indirect ELISA, antigen coated at 2 ug/ml, antibody 0 ng/ml (blank)
readoutLabel: OD450 (参考630nm) (OD)
Return type: number; implicit unit OD.

Data request: So what does the record say about OD450 (参考630nm) for Anti-MP-22A9mut2 (antibody, mouse IgG1, kappa, V domains shown) VH: QAYLQQSGAELVRSGASVKMSCKASGYTFTTYNMHWVKQTPGQGLEWIGYVHPGYGITYYSQKFKGKATLTADTSSSTAYMLLSSLTSEDSAVYFCTRSYYGYSYWFFDVWGAGTTVTVSS VL: NIVMTQSPKSVSMSVGERVTLNCKASENVGSYVAWYQQKPDRSPKLLIHGASNRYTGVPDRFTGSGSTTDFTLTISSVQAEDLADYHCGQTYNYPYTFGGGTKLEIKR ?
Data returned: 0.021

Data request: Endpoint output: OD450 (参考630nm) of Anti-MP-22A9mut5 (antibody, mouse IgG1, kappa, V domains shown) VH: QAYLQQSGAELVRSGASVKMSCKASGYTFTTYNMHWVKQTPGQGLEWIGYVHPGYGITYYSQKFKGKATLTADTSSSTAYMLLSSITSEDSAVYFCTRSYYGYSYWFFDVWGAGTTVTVSS VL: NIVMTQSPKSVSMSVGERVTLNCKASENVGSYVAWYQQKPDRSPKLLIHGASNRYTGVPDRFTGSGSTTDFTITISSVQAEDLADYHCGQTYNYPYTFGGGTKLEIKR . Value?
Data returned: 0.011

Data request: Sample Anti-MP-22A9mut1 (antibody, mouse IgG1, kappa, V domains shown) VH: QAYLQQSGAELVRSGASVKMSCKASGYTFTTYNMHWVKQTPGQGLEWIGYVHPGYGITYYSQKFKGKATLTADTSSSTAYMILSSLTSEDSAVYFCTRSYYGYSYWFFDVWGAGTTVTVSS VL: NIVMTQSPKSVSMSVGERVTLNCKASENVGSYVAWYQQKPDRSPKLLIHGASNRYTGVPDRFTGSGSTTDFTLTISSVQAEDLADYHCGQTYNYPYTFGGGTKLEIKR — what was its OD450 (参考630nm)?
Data returned: 0.013
